I'd be grateful if you could share measured TGI for these entries.
- Tested on: HCT-15 colon
- measurement-description: NCI tumour cell line growth inhibition, 48 h

OC(c1ccc(C(F)(F)F)cc1)C(F)(F)c1nc2ccccc2o1 (stereo not given) | > 100 µM
O=C(O)C1(C(=O)O)CCC1.[NH2-].[NH2-].[Pt+2] | > 250 µM
CS(=O)(=O)CCc1cccc(C(=O)c2cnn(-c3ccc(F)cc3)c2N)c1 | > 25 µM
COC(=O)c1cc(O)c2cc3c(cc2c1-c1cc(OC)c(OC)c(OC)c1)OCO3 | > 100 µM
CCC(=C/[C@H](C)C/C=C/C(C)=C/[C@@H](C)C(=O)[C@@H](C)[C@H](O)[C@@H](C)CC)/C=C/[C@@H]1OC(=O)C=C[C@H]1C | 0.396 µM
CCOC(=O)C(Cc1ccc(OC(=O)c2ccc(OC)cc2)cc1)NC(=O)C(F)(F)F (stereo not given) | > 100 µM
COC(O)C(=O)c1ccc2c(c1)CC1(C2)Cc2cc3c(cc2C1=O)CCC3 (stereo not given) | 58 µM
CCN(CC)c1ccc(C(O)C2=CC(=O)c3ccccc3C2=O)cc1 (stereo not given) | > 32.1 µM
COc1ccc(CCCNC(=O)c2cc(OC)c(OC)cc2CCO)cc1OC | > 100 µM

Record CC1CCCC(C(O)CC2CC(=O)NC(=O)C2)C1O (stereo not given) : what is its TGI with HCT-15 colon?
> 100 µM
